This section lists log10 of IC50 readings for KRAS4B (wild type) (Homo sapiens, UniProt P01116).
Recorded IC50 (log10, µM)

O=c1cc(CSc2ccc(Cl)c(Cl)c2)[nH]n1-c1nc2ccccc2[nH]1 ... -0.10

Items follow; give log10 of IC50 for each.
1. N#Cc1cccc(SCc2cc(=O)n(-c3nc4ccccc4[nH]3)[nH]2)c1
2. O=c1cc(CSc2cccc(Cl)c2)[nH]n1-c1nc2ccccc2[nH]1

Output:
1. 2.00
2. 2.00

Items follow; give log10 of IC50 for each.
1. Cc1ccnc(-n2[nH]c(CSc3ccccc3)cc2=O)c1
2. O=c1cc(CSc2nnc(-c3ccccc3)o2)[nH]n1-c1nc2ccccc2[nH]1
3. O=c1cc(CSCc2ccc(F)cc2)[nH]n1-c1nc2ccccc2[nH]1
4. Cc1cc(C)nc(SCc2cc(=O)n(-c3nc4ccccc4[nH]3)[nH]2)n1

Output:
[0.43, -0.10, -0.26, 0.41]

Items follow; give log10 of IC50 for each.
1. O=c1cc(CSc2ccc(Br)cn2)[nH]n1-c1ccccn1
2. O=c1cc(COc2ccccc2)[nH]n1-c1nc2ccccc2[nH]1
3. O=c1cc(CSc2nc3cc(Cl)ccc3s2)[nH]n1-c1nc2ccccc2[nH]1

Output:
1: 0.87; 2: 0.59; 3: 0.11

---

- Assayed target: Ras protein (Homo sapiens, UniProt P01116)
- Sequence (P01116 1-188 isoform P01116-2): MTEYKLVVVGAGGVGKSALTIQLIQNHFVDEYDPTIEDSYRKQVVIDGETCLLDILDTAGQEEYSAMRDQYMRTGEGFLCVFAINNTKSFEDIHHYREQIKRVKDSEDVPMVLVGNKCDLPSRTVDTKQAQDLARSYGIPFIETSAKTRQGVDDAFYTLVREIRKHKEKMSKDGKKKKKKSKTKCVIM
- Procedure summary: GDPx_Icagen_IC50: SOS1-mediated guanine nucleotide exchange rate of Ras (mant-GDP)
- Type: biochemical
- Assay context: SOS1-initiated exchange
Record form. Attribute: pIC50. Fill in for each entry.
Answers are plain numbers, as −log10 of the molar value.

Cc1cc(C)nc(SCc2cc(=O)n(-c3ccccn3)n2C)n1 [Compound 165] ... 3.70
O=c1cc(CSc2ccccc2)[nH]n1-c1ncc[nH]1 [Compound 179] ... 5.35

Items follow; give pIC50 for each.
1. Cc1csc(SCc2cc(=O)n(-c3ccccn3)[nH]2)n1 [Compound 182]
2. N#Cc1cccc(SCc2cc(=O)n(-c3nc4ccccc4[nH]3)[nH]2)c1 [Compound 173]
3. O=c1cc(CSc2ccccc2Cl)[nH]n1-c1nc2ccccc2[nH]1 [Compound 167]

Output:
1: 5.49; 2: 6.30; 3: 6.70

---

- Assayed target: Ras protein (Homo sapiens, UniProt P01116)
- Procedure summary: GDPx_Icagen_IC50: SOS1-mediated guanine nucleotide exchange rate of Ras (mant-GDP)
- Assay type: biochemical
- Assay context: SOS1-initiated exchange
Record form. Attribute: pIC50. Fill in for each entry.
Give bare numbers, as −log10 of the molar value.

Worked examples, 8 compounds total:
NC(=O)c1ccc(SCc2cc(=O)n(-c3nc4ccccc4[nH]3)[nH]2)cc1 [Compound 178] ... 6.49
O=c1cc(CSc2cccnc2)[nH]n1-c1nc2ccccc2[nH]1 [Compound 181] ... 5.60
O=c1cc(CSc2ccccc2)[nH]n1-c1cnccn1 [Compound 166] ... 4.31
O=c1cc(CSc2cc(Cl)cc(Cl)c2)[nH]n1-c1nc2ccccc2[nH]1 [Compound 175] ... 7.20
O=c1cc(CSc2ccncc2)[nH]n1-c1nc2ccccc2[nH]1 [Compound 168] ... 5.64
O=c1cc(CSc2ccccc2)[nH]n1-c1cc(Br)ccn1 [Compound 176] ... 5.22
[N-]=[N+]=NCc1ccc(SCc2cc(=O)n(-c3nc4ccccc4[nH]3)[nH]2)cc1 [Compound 162] ... 4.00
Cc1cccc(-n2[nH]c(CSc3ccccc3)cc2=O)n1 [Compound 169] ... 5.15

Input: GET /values?readout=pIC50&item= O=c1cc(CSc2ccccn2)[nH]n1-c1nc2ccccc2s1 [Compound 185]
Output: 5.23
